tgt: human capsaicin receptor (Homo sapiens, UniProt Q8NER1)
Construct: expression consrtuct encoding the full length human capsaicin receptor; expressed in transfected cells
Sequence (Q8NER1 whole entry): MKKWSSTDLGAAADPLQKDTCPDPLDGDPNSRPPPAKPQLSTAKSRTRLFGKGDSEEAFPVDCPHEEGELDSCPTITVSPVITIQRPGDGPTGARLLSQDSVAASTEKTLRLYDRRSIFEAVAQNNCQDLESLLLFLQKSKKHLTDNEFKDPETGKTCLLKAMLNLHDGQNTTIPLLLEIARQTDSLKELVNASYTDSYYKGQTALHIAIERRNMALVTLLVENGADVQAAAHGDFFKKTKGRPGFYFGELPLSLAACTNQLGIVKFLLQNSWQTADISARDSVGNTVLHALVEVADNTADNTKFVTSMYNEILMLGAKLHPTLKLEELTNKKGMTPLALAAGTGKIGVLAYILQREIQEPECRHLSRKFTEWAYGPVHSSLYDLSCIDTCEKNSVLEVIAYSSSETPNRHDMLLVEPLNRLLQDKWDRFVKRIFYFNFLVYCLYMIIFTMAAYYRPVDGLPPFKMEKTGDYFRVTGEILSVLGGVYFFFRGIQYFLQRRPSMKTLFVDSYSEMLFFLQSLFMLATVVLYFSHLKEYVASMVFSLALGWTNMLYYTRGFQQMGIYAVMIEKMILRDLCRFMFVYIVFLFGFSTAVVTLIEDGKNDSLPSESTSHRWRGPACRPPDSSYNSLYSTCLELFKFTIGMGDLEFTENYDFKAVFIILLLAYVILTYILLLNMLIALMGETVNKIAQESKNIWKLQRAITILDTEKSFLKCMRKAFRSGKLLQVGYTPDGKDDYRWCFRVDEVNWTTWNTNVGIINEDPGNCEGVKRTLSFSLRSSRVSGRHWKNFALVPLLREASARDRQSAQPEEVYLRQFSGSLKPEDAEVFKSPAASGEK
assayProtocol: Capsaicin receptor binding assay ([3H]RTX competition)
testConditions: read-out: Capsaicin rececptor Ki
reportedProperty: Ki
Show the value, then the unit it is measured in.

Need Ki of COc1cc(CNC(=O)N2CCN(c3ncccc3C(F)(F)F)CC2)ccc1O [Compound 1] , thanks.
366 nM

====

tgt: human capsaicin receptor (Homo sapiens)
Construct: expression consrtuct encoding the full length human capsaicin receptor; expressed in transfected cells
assayProtocol: Capsaicin receptor binding assay ([3H]RTX competition)
reportedProperty: Ki

Need Ki of CC(C)c1ccc(NC(=O)N2CCN(c3ncccc3C#N)CC2)cc1 , thanks.
< 4 µM
